B1: FEM1B (parent)
chain: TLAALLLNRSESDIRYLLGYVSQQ

Variants of: B1
Test: protein stability index of a GFP-peptide fusion (GPS, HEK-293T) (PSI 1-6); higher = more stable;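 note: lentivirally expressed fusions sorted by FACS into six bins by GFP to DsRed ratio, PSI derived from sequencing read proportions per bin multiplied by bin number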
Conditions: c terminus: a fixed tail appended
Returns class 1 if the recorded protein stability index is greater than or equal to 2, and class 0 otherwise.

Some solved cases for reference:
- S22Y: class 1
- D13E: class 1
- V21N: class 1
- Y16R: class 1
- E11G: class 1

Hi, just wondering whether Y20H shows protein stability index of 2 or higher.
class 1

Hi, just wondering whether Q23H shows protein stability index of 2 or higher.
class 1

Hi, just wondering whether L7S shows protein stability index of 2 or higher.
class 0

Hi, just wondering whether R9I shows protein stability index of 2 or higher.
class 1

Hi, just wondering whether L17M shows protein stability index of 2 or higher.
class 1

Hi, just wondering whether N8H shows protein stability index of 2 or higher.
class 1

// provenance: the supplement of paper PMC10567573
